viability, T/C by entry:
Test system: 931267-113-T-J1-PDC KRAS spheroid with HUVEC/MSC, viability;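 note: compound exposure lasted 7 days before the readout; 100% = DMSO vehicle control viability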
Assay: Anticancer human tumor 931267-113-T-J1-PDC patient-derived colon adenocarcinoma cell line growth inhibition [KRAS2]
Conditions: second compound 10 µM; first compound 0.0316 µM; stronger effect = lower value
assay.endpoint: viability, T/C (%)

- compound: "CCN1CCN(Cc2ccc(Nc3ncc(F)c(-c4cc(F)c5nc(C)n(C(C)C)c5c4)n3)nc2)CC1 + COc1cc2nc(C)nc(NC(C)c3cc(N)cc(C(F)(F)F)c3)c2cc1OC1CCOC1"
  recorded.measurement: 2.06
- compound: "O=C(c1cc(Cc2n[nH]c(=O)c3ccccc23)ccc1F)N1CCN(C(=O)C2CC2)CC1 + CC1OCC2(CCN(c3cnc(Sc4ccnc(N)c4Cl)c(N)n3)CC2)C1N"
  recorded.measurement: 59.9
- compound: "O=C(c1cc(Cc2n[nH]c(=O)c3ccccc23)ccc1F)N1CCN(C(=O)C2CC2)CC1 + COc1cc2nc(C)nc(NC(C)c3cc(N)cc(C(F)(F)F)c3)c2cc1OC1CCOC1"
  recorded.measurement: 101
- compound: "COc1cc2nccc(Oc3ccc(NC(=O)C4(C(=O)Nc5ccc(F)cc5)CC4)cc3)c2cc1OC + CC1OCC2(CCN(c3cnc(Sc4ccnc(N)c4Cl)c(N)n3)CC2)C1N"
  recorded.measurement: 99.2
- compound: "CC(C)NCC(C(=O)N1CCN(c2ncnc3c2C(C)CC3O)CC1)c1ccc(Cl)cc1 (configuration not stated) + COc1cc2nc(C)nc(NC(C)c3cc(N)cc(C(F)(F)F)c3)c2cc1OC1CCOC1"
  recorded.measurement: 0.91
- compound: "CC(C)n1nc(-c2ccc3oc(N)nc3c2)c2c(N)ncnc21 + CNCc1ccccc1-c1csc(C(C)Nc2nc(C)nc3cc(OC)c(OC)cc23)c1"
  recorded.measurement: 0.33
- compound: "COc1cc(Nc2ncc3c(n2)-c2ccc(Cl)cc2C(c2c(F)cccc2OC)=NC3)ccc1C(=O)O + C=CC(=O)N1CCN(c2nc(=O)n(-c3c(C)ccnc3C(C)C)c3nc(-c4c(O)cccc4F)c(F)cc23)C(C)C1"
  recorded.measurement: 136
